Below, each entry is listed with its recorded IC50.
Target: hmGluR1 receptor (Homo sapiens)
Construct: expressed in transfected cells
Sequence (Q13255 19-1194): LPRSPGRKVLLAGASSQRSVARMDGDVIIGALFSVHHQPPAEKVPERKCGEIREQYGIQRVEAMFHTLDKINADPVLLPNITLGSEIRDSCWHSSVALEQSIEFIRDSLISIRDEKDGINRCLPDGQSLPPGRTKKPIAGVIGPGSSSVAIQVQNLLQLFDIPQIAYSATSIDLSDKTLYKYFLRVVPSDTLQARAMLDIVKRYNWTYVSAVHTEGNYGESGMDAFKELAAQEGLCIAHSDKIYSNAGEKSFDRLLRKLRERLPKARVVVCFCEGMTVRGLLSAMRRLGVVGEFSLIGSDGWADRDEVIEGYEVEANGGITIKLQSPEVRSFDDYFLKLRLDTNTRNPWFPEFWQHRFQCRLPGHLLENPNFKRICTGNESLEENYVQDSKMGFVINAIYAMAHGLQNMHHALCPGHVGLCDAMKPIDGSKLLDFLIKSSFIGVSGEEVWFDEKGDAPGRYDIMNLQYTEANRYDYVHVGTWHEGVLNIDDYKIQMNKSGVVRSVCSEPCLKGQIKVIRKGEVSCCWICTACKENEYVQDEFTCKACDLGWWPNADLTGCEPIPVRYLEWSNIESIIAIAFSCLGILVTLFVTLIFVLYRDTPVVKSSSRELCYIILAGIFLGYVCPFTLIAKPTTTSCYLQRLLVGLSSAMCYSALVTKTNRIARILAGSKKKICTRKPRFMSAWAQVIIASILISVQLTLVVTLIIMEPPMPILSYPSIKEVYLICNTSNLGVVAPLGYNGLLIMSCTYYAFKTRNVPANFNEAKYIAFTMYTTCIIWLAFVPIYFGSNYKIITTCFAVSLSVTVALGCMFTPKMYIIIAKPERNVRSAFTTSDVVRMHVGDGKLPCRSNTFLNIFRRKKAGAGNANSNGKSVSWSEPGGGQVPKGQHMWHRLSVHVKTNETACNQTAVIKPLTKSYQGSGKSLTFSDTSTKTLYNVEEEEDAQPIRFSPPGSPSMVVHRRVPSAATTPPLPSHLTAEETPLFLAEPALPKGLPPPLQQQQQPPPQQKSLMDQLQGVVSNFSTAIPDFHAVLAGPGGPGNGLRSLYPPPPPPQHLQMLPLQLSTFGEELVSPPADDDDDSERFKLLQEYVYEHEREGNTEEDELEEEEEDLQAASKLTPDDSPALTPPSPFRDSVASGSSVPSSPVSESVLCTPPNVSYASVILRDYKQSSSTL
Experiment: IC50 determination: intracellular calcium mobilization (FLIPR) upon Quisqualate stimulation in CHO cells stably expressing hmGluR1
Type: cell-based
Settings: against Quisqualate 1 μM (EC80), class symbols, read-out: mGIuR 1 IC50

compound: CN(C)c1c(-c2cccc(C#N)c2)cnc2sc3c(=O)n(C4CCCCC4)cnc3c12 [47A]
target_of_assay: hmGluR1 receptor (Homo sapiens)
observed_value: 150 to 1000 nM

CN(C)c1cccc2sc3c(=O)n(-c4ccccc4)cnc3c12 [103C] has a reported IC50 of 150 to 1000 nM

O=c1c2sc3nccc(N4CCC(O)CC4)c3c2ncn1C1CCCCC1 [28AF] has a reported IC50 of > 1000 nM

Cc1cc(N(C)C)c2c(n1)sc1c(=O)n(-c3ccc4c(c3)CCO4)cnc12 has a reported IC50 of 50 to 150 nM

CCN(C)c1ccnc2sc3c(=O)n(-c4ccc(C)cc4)cnc3c12 [28AK] has a reported IC50 of < 50 nM

Cc1ccc(-n2cnc3c(sc4nccc(O)c43)c2=O)cc1 [26C] has a reported IC50 of > 1000 nM

---

Target: hmGluR1 receptor (Homo sapiens)
Construct: expressed in transfected cells
Test: IC50 determination: intracellular calcium mobilization (FLIPR) upon Quisqualate stimulation in CHO cells stably expressing hmGluR1
Format: cell-based
Conditions: against Quisqualate 1 μM (EC80), FLIPR calcium mobilization, read-out: IC50 Class
Below, each entry is listed with its recorded IC50.

Use these answered entries as a reference point.
molecule: COc1ccc(-n2cnc3c(sc4nc(Cl)cc(N(C)C)c43)c2=O)cc1 [57C]
target_of_assay: hmGluR1 receptor (Homo sapiens)
IC50: < 50 nM
//
molecule: CNc1ccnc2sc3c(=O)n(-c4ccc5occc5c4)cnc3c12 [28BH]
target_of_assay: hmGluR1 receptor (Homo sapiens)
IC50: < 50 nM
//
molecule: COc1ccc(-n2cnc3c(sc4nc(Cl)cc(N)c43)c2=O)cc1 [59I]
target_of_assay: hmGluR1 receptor (Homo sapiens)
IC50: 50 to 150 nM

CN(C)c1cccc2sc3c(=O)n(-c4cccc(F)c4)cnc3c12 [103M] has a reported IC50 of 150 to 1000 nM

---

Below, each entry is listed with its recorded IC50.
Target: hmGluR1 receptor (Homo sapiens)
Construct: expressed in transfected cells
Assay: IC50 determination: intracellular calcium mobilization (FLIPR) upon Quisqualate stimulation in CHO cells stably expressing hmGluR1
Format: cell-based
Conditions: against Quisqualate 1 μM (EC80), class symbols, read-out: mGIuR 1 IC50

Use these answered entries as a reference point.
molecule: CNc1c(Cl)cnc2sc3c(=O)n(C4CCCCC4)cnc3c12
IC50: 0.05 to 0.15 µM
--
molecule: C#CCNc1ccnc2sc3c(=O)n(C4CCCCC4)cnc3c12 [72G]
IC50: < 0.05 µM
--
molecule: CCCc1nc2c(sc3nccc(N(C)C)c32)c(=O)n1-c1ccc(C)cc1 [116B]
IC50: 0.15 to 1 µM

CN(C)c1ccnc2sc3c(=O)n(-c4ccc5[nH]ncc5c4)cnc3c12 has a reported IC50 of 0.15 to 1 µM

CN(C)c1ccnc2sc3c(=O)n(C4CCCCCCC4)cnc3c12 [15Q] has a reported IC50 of < 0.05 µM

Nc1ccnc2sc3c(=O)n(C4CCCCC4)cnc3c12 [72A] has a reported IC50 of < 0.05 µM

CCCCNc1ccnc2sc3c(=O)n(C4CCCCC4)cnc3c12 [28R] has a reported IC50 of 0.15 to 1 µM

CCc1ccc(-n2cnc3c(sc4nc(C)cc(N(C)C)c43)c2=O)cc1 has a reported IC50 of 0.05 to 0.15 µM
